Quick list: half-life per entry.
# ASSAY_REMARKS: Half life in Wistar rat at 12 mg/kg. iv
# Assay type: ADME, organism-based
# Set-up: dose 12 mg/kg, route intravenous
# REPORTED_CONDITIONS: in vivo
QUANTITY_KIND: half-life (h)

cpd_smiles=Clc1ccc(CCO[C@@H]2CCCC[C@H]2N2CCOCC2)cc1Cl readout_unit=h endpoint_value=4.5
cpd_smiles=c1ccc2c(CCO[C@@H]3CCCC[C@H]3N3CCOCC3)cccc2c1 readout_unit=h endpoint_value=6.5

---

Quick list: bioavailability per entry.
# ASSAY_REMARKS: Oral bioavailability in Wistar rat at 24 mg/kg. […]
# Format: ADME, organism-based
# REPORTED_CONDITIONS: in vivo
QUANTITY_KIND: bioavailability (%)

cpd_smiles=Clc1ccc(CCO[C@@H]2CCCC[C@H]2N2CCOCC2)cc1Cl endpoint_value=7
cpd_smiles=c1ccc2c(CCO[C@@H]3CCCC[C@H]3N3CCOCC3)cccc2c1 endpoint_value=4

meta.source: ChEMBL document CHEMBL1143695
